Assay: Volume of distribution in Wistar rat at 1 mg/kg, iv by LC-MS/MS analysis
Assay type: ADME, organism-based
Details: in vivo
Assign Vd to each entry below.
Field note: include the unit after the figure.

QUERY: Determine from records and report Vd for Cc1cc(C(c2ccccc2)c2ccccc2)sc1C(=O)N[C@@H](CCCNC(=N)N)C(=O)O
RESULT: 0.7 L

QUERY: Indicate its recorded Vd; the compound in question is Cc1cc(C(c2ccc(Cl)cc2)c2ccc(Cl)cc2)sc1C(=O)N[C@@H](CCCNC(=N)N)C(=O)O
RESULT: 0.1 L

----------
Assay: Cmax in Wistar rat at 10 mg/kg, po by LC-MS/MS analysis
Assay type: ADME, organism-based
Design: dose 10 mg/kg, route oral
Settings: in vivo
Can you tell me Cmax for the items I'm about to list?
Numeric only. Scale: ng/mL

QUERY: Give reported Cmax value for Cc1cc(C(c2ccc(Cl)cc2)c2ccc(Cl)cc2)sc1C(=O)N[C@@H](CCCNC(=N)N)C(=O)O
RESULT: 88

QUERY: Give the reported value of Cmax for this record: N=C(N)NCCC[C@H](NC(=O)c1ccc(C(c2ccccc2)c2ccccc2)s1)C(=O)O
RESULT: 91

QUERY: Given N=C(N)NCCC[C@H](NC(=O)c1ccc(C(c2ccc(Cl)cc2)c2ccc(Cl)cc2)s1)C(=O)O , respond with its Cmax.
RESULT: 143

QUERY: Respond only with Cmax recorded for Cc1cc(C(c2ccccc2)c2ccccc2)sc1C(=O)N[C@@H](CCCNC(=N)N)C(=O)O
RESULT: 23
